Cited source for all entries: paper PMC9482650

Target: T1, SNTB1, Q13884
T1 sequence (Q13884 107-205, limits assumed, looked up): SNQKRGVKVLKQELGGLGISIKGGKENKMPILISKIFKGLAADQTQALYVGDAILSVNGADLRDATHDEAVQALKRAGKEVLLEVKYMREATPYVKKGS
Test: holdup assay
Set-up: key: below the threshold = too weak to quantify, mostly under pKd 3.1 to 4
Conditions: plain residues with an end cap or a label only (N-terminal biotin on a linker: ado-ado)
I would appreciate it if you labelled entries 1.0 when pKd is 5 or higher, otherwise 0.0.

* SAAKVLTSMC [GHRHR, Q02643] | 0.0
* EVEEFPETSV [TRPV3, Q8NET8] | 1.0
* DDENIRTSDV [PLEKHA2, Q9HB19] | 1.0
* HSGYRLNDYV [CLDN14, O95500] | 0.0
* AKPSRISTVV [IQSEC2, Q5JU85] | 0.0
* PDGQCTVTEV [RNF146, Q9NTX7] | 0.0
* NLSIEKETKL [ASNSD1, Q9NWL6] | 1.0
